Here, each record is paired with measured folding enthalpy data.
- procedure.summary: folding enthalpy; higher = less favourable; fluorescence melt of hairpins on a sequencing array, two-state fit
- stated.conditions: sodium 0.088 M
recorded.metric: folding enthalpy

In [3]: df
Out[3]:
                                      seq   recorded_metric  reported_value
 0      GATCAAGATCTTGATC ((((((....))))))  folding enthalpy  -47.1 kcal/mol
 1      GATCCTGATCAGGATC ((((((....))))))  folding enthalpy  -39.8 kcal/mol
 2      GCCAGGGAAACCTGGC ((((((....))))))  folding enthalpy  -37.4 kcal/mol
 3  GCCTAACGAAAGTTCGGC (((.(((....))).)))  folding enthalpy  -34.8 kcal/mol
 4  GCGCCTCCGAAAGGACGC (((..(((....))))))  folding enthalpy  -25.2 kcal/mol
 5  GCGCTGCGAAAGCTACGC (((..((....))..)))  folding enthalpy    -23 kcal/mol
 6        GATCTACCTTAGATC ((((((...))))))  folding enthalpy    -32 kcal/mol
 7      GATCTGATCTCAGATC ((((((....))))))  folding enthalpy  -37.1 kcal/mol
 8  GTCTGTGGAAACACAGGC (.(((((....))))).)  folding enthalpy  -32.4 kcal/mol
 9          TATCGGAAACGATA (((((....)))))  folding enthalpy  -17.8 kcal/mol
10  GAGTGCGAAAGCATACTC ((((((....)))..)))  folding enthalpy  -17.5 kcal/mol
11  GTGAGGGGAAACCCTTGC (..((((....))))..)  folding enthalpy  -16.4 kcal/mol
12  GGTAGTGGAAACATTACC ((((.((....)).))))  folding enthalpy  -34.3 kcal/mol
13  GGTCACGAAAGTGAGACC ((((((....)))..)))  folding enthalpy  -15.7 kcal/mol
14      GATCACATGAGTGATC ((((((....))))))  folding enthalpy  -42.1 kcal/mol
15  GCCCCAGCGAAAGCTGGC (((..(((....))))))  folding enthalpy  -5.59 kcal/mol
16  GGCATAGGAAACTACGCC (((.(((....))).)))  folding enthalpy  -28.2 kcal/mol
17          AGACAGAAATGTCT (((((....)))))  folding enthalpy  -15.8 kcal/mol
18  GCTTGTCGAAAGACTAGC (((.(((....))).)))  folding enthalpy    -34 kcal/mol
19  GCTACGCGAAAGCTTGGC ((.(.((....)).).))  folding enthalpy  -17.4 kcal/mol
20              GCGTCCATACGC ((((....))))  folding enthalpy  -23.3 kcal/mol
21  GGCACCGAAAGGTCGGCC ((((((....)))..)))  folding enthalpy  -21.8 kcal/mol
22              GCGTAAGTACGC ((((....))))  folding enthalpy  -23.9 kcal/mol
23  GGTATGGGAAACCACACC (((.(((....))).)))  folding enthalpy    -27 kcal/mol
24  GACGCAGGAAACTACGTC ((((.((....)).))))  folding enthalpy  -26.6 kcal/mol
25    GTAGTGCGAAAGCATAC (((.(((....))))))  folding enthalpy  -12.6 kcal/mol
